Provenance of the data: ChEMBL document CHEMBL3745606

assayedTarget: Neuronal acetylcholine receptor subunit alpha-7 (Homo sapiens) (UniProt P36544)
Sequence (P36544 whole entry): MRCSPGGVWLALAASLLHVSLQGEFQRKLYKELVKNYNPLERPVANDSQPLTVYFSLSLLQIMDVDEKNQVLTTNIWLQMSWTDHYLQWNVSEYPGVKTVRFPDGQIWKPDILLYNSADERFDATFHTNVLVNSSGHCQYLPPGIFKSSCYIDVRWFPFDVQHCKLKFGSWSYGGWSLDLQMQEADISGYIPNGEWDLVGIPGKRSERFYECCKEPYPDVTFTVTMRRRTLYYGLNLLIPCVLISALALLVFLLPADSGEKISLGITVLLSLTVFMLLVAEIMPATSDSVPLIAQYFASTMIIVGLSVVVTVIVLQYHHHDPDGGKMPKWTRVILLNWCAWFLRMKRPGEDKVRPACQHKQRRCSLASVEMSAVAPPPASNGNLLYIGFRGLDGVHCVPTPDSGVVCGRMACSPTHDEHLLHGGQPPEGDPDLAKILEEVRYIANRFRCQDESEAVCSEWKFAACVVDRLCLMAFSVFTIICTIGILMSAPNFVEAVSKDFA
procedureSummary: Agonist activity at human alpha7 nAChR expressed in xenopus oocytes assessed as potentiation of PNU-120596-induced PAM-sensitive desensitization at 30 uM by two-electrode voltage clamp electrophysiology relative to acetylcholine
Format: cell-based
fold change (FC) strictly less than 10 = TRUE. Otherwise FALSE.

I wonder whether `CC[N+]1(CC)CCN(c2cccc(C(F)(F)F)c2)CC1` has fold change (FC) below 10. Can you tell?
TRUE

I wonder whether `CC[N+]1(CC)CCN(c2ccc(OC)cc2)CC1` has fold change (FC) below 10. Can you tell?
FALSE

I wonder whether `CC[N+]1(CC)CCN(c2cccc(C#N)c2)CC1` has fold change (FC) below 10. Can you tell?
TRUE

I wonder whether `CC[N+]1(CC)CCN(c2ccc(Br)cc2)CC1` has fold change (FC) below 10. Can you tell?
FALSE

I wonder whether `CC[N+]1(CC)CCN(c2cccc(Cl)c2)CC1` has fold change (FC) below 10. Can you tell?
TRUE

I wonder whether `CC[N+]1(CC)CCN(c2ccc(C(N)=O)cc2)CC1` has fold change (FC) below 10. Can you tell?
FALSE

I wonder whether `CC[N+]1(CC)CCC(Nc2ccccc2)CC1` has fold change (FC) below 10. Can you tell?
TRUE

I wonder whether `CC[N+]1(CC)CCN(c2cccc(C(N)=O)c2)CC1` has fold change (FC) below 10. Can you tell?
FALSE

I wonder whether `CC[N+]1(CC)CCN(c2ccccc2)CC1` has fold change (FC) below 10. Can you tell?
TRUE

I wonder whether `CC[N+]1(CC)CCN(c2ccc(C(F)(F)F)cc2)CC1` has fold change (FC) below 10. Can you tell?
FALSE

I wonder whether `CC[N+]1(CC)CCN(c2cccc(OC)c2)CC1` has fold change (FC) below 10. Can you tell?
TRUE

I wonder whether `CC[N+]1(CC)CCN(c2ccc(OC)cc2OC)CC1` has fold change (FC) below 10. Can you tell?
TRUE

I wonder whether `CC[N+]1(CC)CCN(c2ccc(F)cc2)CC1` has fold change (FC) below 10. Can you tell?
FALSE

I wonder whether `CCN1CCN(c2ccc(F)cc2)CC1` has fold change (FC) below 10. Can you tell?
TRUE

I wonder whether `CCN1CCN(c2ccc(C(F)(F)F)cc2)CC1` has fold change (FC) below 10. Can you tell?
TRUE

I wonder whether `CC[N+]1(CC)CCN(c2cccc(F)c2)CC1` has fold change (FC) below 10. Can you tell?
TRUE

I wonder whether `CC[N+]1(CC)CCN(c2ccc(C)cc2)CC1` has fold change (FC) below 10. Can you tell?
TRUE

I wonder whether `CC[N+]1(CC)CCN(c2cccc(C)c2)CC1` has fold change (FC) below 10. Can you tell?
TRUE

I wonder whether `CCN1CCN(c2cccc(Br)c2)CC1` has fold change (FC) below 10. Can you tell?
TRUE

I wonder whether `CCN1CCN(c2cccc(Cl)c2)CC1` has fold change (FC) below 10. Can you tell?
TRUE
